molecular target: monoclonal antibody 23L-2Ca; assay: competitive EIA: unlabeled ligand varied against HRP-labeled [Cys^19-NH2] rat TGR23-2 ligand (1-19) for 23L-2Ca (FIG. 7)
quantity-measured: IC50 (nM)

P = SFRNGVGSGAKKTSFRRAKQ [mouse TGR23-2 ligand]
Q = SFRNGVGSGVKKTSFRRA [rat TGR23-2 ligand]
Kindly identify which of P and Q has the larger recorded IC50 value. When you have decided, please share the label of that item.
P
(P: 40 nM, Q: 20 nM)
